Tested on: noninfected cells
Assay: CyQUANT XTT Cell Viability cytotoxicity assay
Type: cell-based
observation-type: CC50

>  <compound>
Cc1nc2ccccc2c(-c2ccc3c(c2)OCCO3)c1C(OC(C)(C)C)C(=O)O (centres unmarked)

>  <observation-type>
CC50

>  <value-observed>
> 100 µM

$$$$

Next compound, please.
Look up and report measured CC50 for this entry: COc1ccccc1-c1ccc2c(-c3ccc4c(c3)OCCO4)c(C(OC(C)(C)C)C(=O)O)c(C)nc2c1 (centres unmarked)
> 100 µM
